These data points were gathered from PubChem BioAssay (NCI).

# Test system: SNB-75 CNS
# EXPERIMENTAL_PROTOCOL: NCI-60 one-dose screen, 48 h (100 = growth as untreated, 0 = no growth, -100 = all killed)
# CONDITION_LABEL: 10 µM unless noted
This is part of a sample that, as a whole, favours compounds with a hit. Of some 83,000 tested, about 20% had one in any assay.
Readings of growth for the listed compounds
READOUT_NAME: growth (%)

COc1cccc(Nc2nc(SC)nc(-c3cccc([N+](=O)[O-])c3)c2C#N)c1 ... 34
Cc1[nH]c(-c2ccc3cc[nH]c3c2)c2c1C(=O)CCCC2 ... 6.65
COc1ccc(C(=O)COc2cccc(/C=C3\CSc4ccccc4C3=O)c2)cc1 ... 91.6
CCC([N+](=O)[O-])S(=O)(=O)c1ccc(C)cc1 (stereo unspecified) ... 85.1
CSc1nc(NCCN2CCOCC2)c(C#N)c(-c2cccc([N+](=O)[O-])c2)n1 ... 62.8
O=C1C=C(OCC=C(Cl)Cl)C(=O)c2ccccc21 ... 50.6
CC(O)CN(CC(C)O)c1ccc2c(c1)Cc1cc([N+](=O)[O-])ccc1-2 (stereo unspecified) ... 87.5
Clc1ccc2c(NCCCCNc3nc(N4CCOCC4)nc4ccccc34)ccnc2c1 ... 79
Nc1ccc(-c2cc3c(NCc4ccccc4)ncnc3s2)cc1 ... 89.2
COc1cc2nc(N3CCCC3)nc(NCCc3ccccc3)c2cc1OC ... 93.5
O=c1oc2c(C(F)(F)F)cccc2cc1-c1csc(Nc2ccc(OCCF)cc2)n1 ... 19.3

---

# System: EKVX NSCLC
# EXPERIMENTAL_PROTOCOL: NCI-60 one-dose screen, 48 h (100 = growth as untreated, 0 = no growth, -100 = all killed)
# CONDITION_LABEL: 10 µM unless noted
Compounds without any hit were thinned out: in the full panel of roughly 83,000, 20% have a hit.
Readings of growth for the listed molecules
READOUT_NAME: growth (%)

NS(=O)(=O)c1ccc(CN=C2NC(=O)S/C2=C\c2ccc(Br)cc2)cc1 ... 103
CC/C=C\C[C@H](O)C/C=C1/C(=O)C=C[C@@]1(C)C/C=C\CCCC(=O)OC ... 104
CCOc1ccc(C(C)=O)cc1NC(=O)c1cccc(-c2nnn(CC)n2)c1 ... 54.5
COc1ccc(-c2cc(C(=O)N=Nc3c(O)[nH]c4ccc(Br)cc34)no2)cc1 ... 94.4
CC1=NN(c2nc(-c3ccc(Cl)cc3)c(C#N)c(N3CCOCC3)n2)C(=O)C1 ... 88.8
Clc1ccc2c(NCCCCNc3nc(N4CCOCC4)nc4ccccc34)ccnc2c1 ... 45.2
O=C1c2cccc3cccc(c23)C(=O)N1CCCCN1CCN(CCCCOc2ccc(-c3nc4ccc(N5CCOCC5)cc4[nH]3)cc2)CC1 ... 91.7
COc1ccc(C2CC(c3ccc4ccccc4c3)=NN2/C=C2\SC(=S)N(NC(=O)Cc3ccccc3Nc3c(Cl)cccc3Cl)C2=O)cc1 (centres undefined) ... 40.2
Oc1ccc(N=Cc2ccccc2O)cc1 ... 103

---

# System: A549/ATCC NSCLC
# EXPERIMENTAL_PROTOCOL: NCI-60 one-dose screen, 48 h
# CONDITION_LABEL: 10 µM unless noted
About 83,000 compounds went through this panel and 20% of them were active in at least one assay; those are over-represented in the sample as a whole. Activity calls are given as the source filed them. Rule for the calls: active = growth percent below 10; inactive = the rest.
Possible outcomes: 1 (yes) = active, 0 (no) = inactive

C=CC(=O)Nc1cccc(Nc2nc(SC)nc(-c3cccc([N+](=O)[O-])c3)c2C#N)c1 ... 1 (yes)
COc1ccc(-n2nc(C)c3c(Nc4ccc(NC(=O)Nc5ccc(Cl)c(C(F)(F)F)c5)cc4)ncnc32)cc1 ... 1 (yes)
COc1ccc(/C=C/C(=O)c2cc(O)ccc2O)cc1 ... 0 (no)
O=C1c2cc3c(cc2-c2c1c1ccc(F)cc1c(=O)n2C[C@H](O)[C@@H](O)[C@H](O)CO)OCO3 ... 1 (yes)
O=C1Nc2c(ccc(Cl)c2Cl)/C1=C\c1ccc(C(F)(F)F)cc1 ... 0 (no)
Cn1nc(N)c2cc([C@@H]3Nc4ccc5[nH]ncc5c4[C@H]4C5CCC(C5)[C@@H]34)ccc21 (stereo not given in full) ... 0 (no)
Cn1ncc2c(=O)nc3c(-c4ccccc4)n[nH]n3c21 ... 0 (no)
CC(C)CSc1nc(N)nc2c1ncn2C1OC(CO)C(O)C1O (stereo not given) ... 0 (no)
CC(=O)NCC1c2c(n(C)c3c(Cl)c(Cl)ccc23)C(=O)NC1(C)C (stereo not given) ... 0 (no)
CCOc1ccc(-n2nc(C(=O)Nc3cc(OC)c(OC)c(OC)c3)nc2-c2cc(OC)c(OC)c(OC)c2)cc1 ... 0 (no)

---

Readings of growth for the listed compounds
# Tested on: 786-0 renal
# EXPERIMENTAL_PROTOCOL: NCI-60 one-dose screen, 48 h (100 = growth as untreated, 0 = no growth, -100 = all killed)
# CONDITION_LABEL: 10 µM unless noted
Compounds without any hit were thinned out: in the full panel of roughly 83,000, 20% have a hit.
READOUT_NAME: growth (%)

COc1ccc(-c2cc(-c3ccc(Nc4ccnc5cc(Cl)ccc45)cc3)nc(N3CCOCC3)n2)cc1 ... 69.6
Cn1cc(-c2nonc2-c2cn(C)c3ccc(F)cc23)c2ccccc21 ... 34.3
CC1(C)CC[C@]2(C(=O)Nc3ccccn3)CC[C@]3(C)C(=CC[C@@H]4[C@@]5(C)C/C(=C/c6cccnc6)C(=O)C(C)(C)[C@@H]5CC[C@]43C)[C@H]2C1 ... 43.2
COc1cc(/C=C/c2cc(/C=C/c3ccc(O)c(OC)c3)n(-c3c(Cl)cccc3Cl)c(=O)n2)ccc1O ... 29.7
O=C1c2cc3c(cc2-c2c1c1ccc(Cl)cc1c(=O)n2CCCN1CCOCC1)OCO3 ... 34.2
CC(=O)OCCC/C(=C/c1cc2ccccc2c2ccccc12)[N+](=O)[O-] ... -89.5
Cn1cccc1-c1nc2c3c(ccc2[nH]1)C(=O)c1ccccc1C3=O ... 103
Clc1ccc2c(NCCCCNc3nc(N4CCCCC4)nc4ccccc34)ccnc2c1 ... -90.3
NS(=O)(=O)c1ccc(CN=C2NC(=O)S/C2=C\c2ccc(Br)cc2)cc1 ... 94.1

---

# System: ACHN renal
# EXPERIMENTAL_PROTOCOL: NCI-60 one-dose screen, 48 h
# CONDITION_LABEL: 10 µM unless noted
The panel holds about 83,000 compounds, 20% with a hit somewhere; the sample as a whole holds those more often. Calls of active or inactive are those of the source. How the source made its calls: active means growth percent below 10; inactive means the rest.
Possible outcomes: YES for active, NO for inactive

CC(=O)O[C@H]1CC[C@]2(C)[C@H]3CC=C4[C@@H]5CC(C)(C)CC[C@]5(C(=O)NCCNCCNCCN)CC[C@@]4(C)[C@]3(C)CC[C@H]2C1(C)C ... YES
CCN(CC)c1ccc(/C=N\NC(=O)/C=C/C=C/c2ccc3c(c2)OCO3)c(O)c1 ... NO
Cc1cc(N2CCOCC2)nc(N[C@@H]2CCC[C@H](Nc3ccnc4cc(Cl)ccc34)C2)n1 ... YES
COc1ccc(/C=N/C2=C(C#N)C(c3ccc(N(C)C)cc3)c3ccc4ccccc4c3O2)cc1 (stereo not drawn) ... NO
O=S(=O)(Nc1ccc(Cl)c(F)c1)c1ccc(-c2cnc(C3CC3)o2)cc1 ... NO
O=C(/C=C/C=C/c1ccc2c(c1)OCO2)N/N=C\c1ccc(O)cc1O ... NO
COc1cc(-c2nc3ccccc3[nH]2)ccc1OCC(=O)N=Nc1c(O)[nH]c2ccc(Cl)cc12 ... NO
O=C(NCCN1CCOCC1)Nc1ccc(-c2cc3c(Nc4ccc(Oc5cccc(C(F)(F)F)c5)c(Cl)c4)ncnc3s2)cc1 ... NO

---

# System: NCI-H322M lung
# EXPERIMENTAL_PROTOCOL: NCI-60 one-dose screen, 48 h (100 = growth as untreated, 0 = no growth, -100 = all killed)
# CONDITION_LABEL: 10 µM unless noted
Compounds without any hit were thinned out: in the full panel of roughly 83,000, 20% have a hit.
# note: boundary value 90% maps to not satisfied; growth below it maps to satisfied

CC[C@]1(O)C[C@@H]2CN(CCc3c([nH]c4ccccc34)[C@@](C(=O)OC)(c3cc4c(cc3OC)N(C)[C@H]3[C@@](O)(C(N)=O)[C@H](O)[C@]5(CC)[C@@H]6C[C@@H]6CN6CC[C@]43[C@@H]65)C2)C1 ... satisfied
COc1ccc(C2C(C#N)=C(N)Oc3n[nH]c(-c4cccs4)c32)cc1I (stereo not drawn) ... not satisfied
Cc1ncc(C(=O)Nc2ccc(CN3CCN(C)CC3)c(C(F)(F)F)c2)cc1C#Cc1cnc2cccnn12 ... satisfied
CCOC(=O)c1c(CN2CCN(C)CC2)nc2ccc(Cl)cc2c1-c1ccccc1 ... not satisfied
CN(CCCCCl)P(=O)(OCc1ccc([N+](=O)[O-])o1)C(F)(F)c1ccc(CC(=O)NC[C@@H](O)/C=C\[C@@H](O)[C@H](CO)Cc2ccccc2)cc1 (stereo partly drawn) ... not satisfied
O=C(COc1cccc(/C=C2\COc3ccccc3C2=O)c1)Nc1nccs1 ... not satisfied
COc1cc2c(cc1-c1c(C)noc1C)ncc1nc(-c3ccccn3)n([C@H](C)COC(F)F)c12 ... satisfied
